- target_of_assay: human orexin-2 receptor (Homo sapiens (Human), UniProt O43614)
- Sequence (O43614 whole entry): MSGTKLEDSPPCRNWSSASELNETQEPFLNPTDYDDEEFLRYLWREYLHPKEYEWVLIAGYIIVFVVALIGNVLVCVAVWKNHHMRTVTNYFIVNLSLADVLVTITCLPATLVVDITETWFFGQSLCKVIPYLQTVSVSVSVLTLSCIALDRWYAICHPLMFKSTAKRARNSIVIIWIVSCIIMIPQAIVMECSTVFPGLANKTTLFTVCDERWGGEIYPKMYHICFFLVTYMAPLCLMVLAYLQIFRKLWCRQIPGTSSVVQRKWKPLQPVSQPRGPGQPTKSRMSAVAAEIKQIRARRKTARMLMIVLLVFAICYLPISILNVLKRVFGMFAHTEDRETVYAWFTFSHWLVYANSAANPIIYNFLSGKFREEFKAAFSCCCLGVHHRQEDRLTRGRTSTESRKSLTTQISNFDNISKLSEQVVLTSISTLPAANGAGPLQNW
- experiment_summary: FLIPR Ca2+ Flux Assay, orexin-2 receptor
- run_parameters: CHO cells, agonist 70 pM Ala-6,12 human orexin-A; read-out: hOX2R FLIPR IC50
measured_quantity: pIC50
The read-out pIC50 is expressed as -log10 of concentration in moles per litre.

// lookup pIC50 | system=human orexin-2 receptor (Homo sapiens (Human), UniProt O43614) | key= Cc1cccc(C(=O)N2C[C@H](Sc3cc(C#N)ccn3)CC[C@H]2C)c1-n1nccn1 [Example 18] 7.84

Item C[C@@H]1CC[C@@H](Sc2cc(C#N)ccn2)CN1C(=O)c1ccsc1-n1nccn1 [Example 44] with human orexin-2 receptor (Homo sapiens (Human), UniProt O43614) - pIC50? 7.73

Write down the reported pIC50 of C[C@@H]1CC[C@@H](Sc2cc(C#N)ccn2)CN1C(=O)c1ccccc1-n1nccn1 [Example 9] , test system: human orexin-2 receptor (Homo sapiens (Human), UniProt O43614). 7.87

Please provide the recorded pIC50 for C[C@@H]1CC[C@@H](Sc2cc(C#N)ccn2)CN1C(=O)c1ccc(F)cc1-n1nccn1 [Example 21] , tested on human orexin-2 receptor (Homo sapiens (Human), UniProt O43614). 7.58

Give the reported pIC50 for C[C@@H]1CC[C@@H](Sc2ccc(C(F)(F)F)cn2)CN1C(=O)c1ccccc1-n1nccn1 [Example 8] (system: human orexin-2 receptor (Homo sapiens (Human), UniProt O43614)). 6.49

# value lookup — system human orexin-2 receptor (Homo sapiens (Human), UniProt O43614), readout pIC50, item C[C@@H]1CC[C@@H](Sc2cc(C#N)ccn2)CN1C(=O)c1ccccc1C1CCCCO1 (stereo partly drawn) [Example 38] 7.44

Can you look up pIC50 on human orexin-2 receptor (Homo sapiens (Human), UniProt O43614) for Cc1ccnc(S[C@@H]2CC[C@@H](C)N(C(=O)c3ccccc3-n3nccn3)C2)c1C#N [Example 10] ? 7.62

Record C[C@@H]1CC[C@@H](Sc2cc(C#N)ccn2)CN1C(=O)c1ccc(Cl)cc1-n1nccn1 [Example 20] : what is its pIC50 with human orexin-2 receptor (Homo sapiens (Human), UniProt O43614)? 7.81

Return pIC50 measured with human orexin-2 receptor (Homo sapiens (Human), UniProt O43614) given this molecule: COc1cccc(-n2nccn2)c1C(=O)N1C[C@H](Sc2cc(C#N)ccn2)CC[C@H]1C [Example 17] 7.29

----------
- target_of_assay: hOX1R (Homo sapiens, UniProt O43613)
- experiment_summary: FLIPR Ca2+ Flux Assay, orexin-1 receptor
- run_parameters: CHO cells, agonist 70 pM Ala-6,12 human orexin-A
Kindly state pIC50 for each of the entries shown.
Scale note: pIC50 = -log10(concentration in M).

I have this molecule here, C[C@@H]1CC[C@@H](Sc2cc(C#N)ccn2)CN1C(=O)c1cc(Br)ccc1-n1nccn1 , and I need its recorded pIC50. 6.31

Could you tell me which pIC50 is on file for C[C@@H]1CC[C@@H](Sc2ccccn2)CN1C(=O)c1ccccc1-n1nccn1 ? 5.79

What does the record list as pIC50 for C[C@@H]1CC[C@@H](Sc2cc(C#N)ccn2)CN1C(=O)c1ccsc1-c1ncccn1 ? 5.65

Give its pIC50 value. Item: Cc1ccnc(S[C@@H]2CC[C@@H](C)N(C(=O)c3ccccc3-n3nccn3)C2)c1C#N 6.20

Using the record for C[C@@H]1CC[C@@H](Sc2ccc(C(F)(F)F)cn2)CN1C(=O)c1ccccc1-n1nccn1 , report its pIC50. 6.22

Quick check: pIC50 of C[C@@H]1CC[C@@H](Sc2cc(C#N)ccn2)CN1C(=O)c1cccc(F)c1-n1nccn1 ? 5.59

Fill in the blank: the reported pIC50 of C[C@@H]1CC[C@@H](Sc2cc(C#N)ccn2)CN1C(=O)c1ccccc1C1CCCCO1 (stereo partly drawn) is ____. 5.00

What does the record list as pIC50 for C[C@@H]1CC[C@@H](Sc2ncccc2C(=O)O)CN1C(=O)c1ccccc1-n1nccn1 ? 5.18

Fill in: pIC50 of Cc1cc(C#N)cc(S[C@@H]2CC[C@@H](C)N(C(=O)c3ccccc3-n3nccn3)C2)n1 is ___ 5.81

----------
Please provide measured IC50 for the entries that follow.
- target_of_assay: human orexin-2 receptor (Homo sapiens (Human), UniProt O43614)
- experiment_summary: FLIPR Ca2+ Flux Assay, orexin-2 receptor
- run_parameters: CHO cells, agonist 70 pM Ala-6,12 human orexin-A; read-out: hOX2R FLIPR IC50
- Experimental: The utility of the compounds in accordance with the present invention as orexin receptor OX1R and/or OX2R antagonists may be readily determined without undue experimentation by methodology well known in the art, including the “FLIPR Ca^2+ Flux Assay” (Okumura et al., Biochem. Biophys. Res. Comm. 280:976-981, 2001). In a typical experiment the OX1 and OX2 receptor antagonistic activity of the compounds of the present invention was determined in accordance with the following experimental method. […]
Answer shape: numeric part, then the unit.

State the recorded IC50 for this entry: CSc1ccccc1C(=O)N1C[C@H](Sc2cc(C#N)ccn2)CC[C@H]1C 75.4 nM

Which IC50 value belongs to COc1ccc(C(=O)N2C[C@H](Sc3cc(C#N)ccn3)CC[C@H]2C)c(-c2ncccn2)n1 ? 864 nM

# input compound: C[C@@H]1CC[C@@H](Sc2cc(C#N)ccn2)CN1C(=O)c1cccc(F)c1-n1nccn1 ; wanted: its IC50 20.8 nM

Query: IC50; subject: C[C@@H]1CC[C@@H](Sc2cc(C#N)ccn2)CN1C(=O)c1ccccc1C1CC1 18.3 nM

So what's the measured IC50 for this one? COC(=O)c1c(C)ccnc1S[C@@H]1CC[C@@H](C)N(C(=O)c2ccccc2-n2nccn2)C1 22.2 nM

Please report the recorded IC50 for C[C@@H]1CC[C@@H](Sc2ccccn2)CN1C(=O)c1ccccc1-n1nccn1 . 179 nM

Would you kindly share the measured IC50 for Cc1cc(C#N)cc(S[C@@H]2CC[C@@H](C)N(C(=O)c3ccccc3-n3nccn3)C2)n1 ? 82.9 nM

// query IC50 value for entry C[C@@H]1CC[C@@H](Sc2cc(C#N)ccn2)CN1C(=O)c1sccc1-c1ncccn1 5.3 nM

----------
- target_of_assay: hOX1R (Homo sapiens, UniProt O43613)
- experiment_summary: FLIPR Ca2+ Flux Assay, orexin-1 receptor
- run_parameters: CHO cells, agonist 70 pM Ala-6,12 human orexin-A
measured_quantity: pIC50
Hey, just a heads up that pIC50 is the negative log base 10 of the concentration in molar.

Give the reported pIC50 for C[C@@H]1CC[C@@H](Sc2cc(C#N)ccn2)CN1C(=O)c1ccccc1Oc1ccccc1 [Example 29] (system: hOX1R (Homo sapiens, UniProt O43613)). 5.00

Write down the reported pIC50 of Cc1ccnc(S[C@@H]2CC[C@@H](C)N(C(=O)c3ccccc3-n3nccn3)C2)c1 [Example 11] , test system: hOX1R (Homo sapiens, UniProt O43613). 6.36

What reported pIC50 corresponds to C[C@@H]1CC[C@@H](Sc2cc(C#N)ccn2)CN1C(=O)c1cc(Cl)ccc1-n1nccn1 [Example 25] on hOX1R (Homo sapiens, UniProt O43613)? 5.31

Query for hOX1R (Homo sapiens, UniProt O43613): what pIC50 does the record show for C[C@@H]1CC[C@@H](Sc2cc(C#N)ccn2)CN1C(=O)c1ccccc1-c1ccccc1 [Example 28] ? 6.55

From: patent US9617246B2
